# experimental.protocol: Phase 1 Stage 1 clinical pharmacokinetics of SC ZA co-administered with rHuPH20
# Type: in vivo, human
# settings: human, serum, sc, 0.0717 mg/kg, Subj 67; ZA 0.0717 mg/kg SC; inf […]; PH20 2880 U; read-out: Tmax
# Procedure: A pharmacokinetic study of zoledronic acid (ZA) co-administered with rHuPH20 in human subjects was conducted. […] Serum concentration of ZA was determined using a qualified LC-MS-MS assay after derivatization with diazomethane (Zhu, L S et al. (2006) Rapid Commun. […] The assay range was from 2.0 to 400 ng/mL with a lower limit of quantitation (LLOQ) at 2.0 ng/mL. […] Summary statistics (mean, standard deviation, and median) were calculated using JMP or Microsoft Excel.
readout.name: Tmax (min)

> print(dat)
                                molecule  value.observed
1  O=P(O)(O)C(O)(Cn1ccnc1)P(=O)(O)O [ZA]            44.4

###

# experimental.protocol: Pharmacokinetics of ZA in pig serum after IV or SC infusion with or without rHuPH20 (LC-MS-MS, non-compartmental analysis)
# Type: in vivo
# settings: female, Yorkshire, pig, serum, subcutaneous, […], Time 0.05 h; pig ID 60; Study Group 2; SC; ZA […]; 100 mL, 16 min; rHuPH20 0 U/mL; read-out: Zoledronic Acid Serum Concentration
readout.name: concentration at 0.05 h

> print(dat)
                       smiles.input  value.observed
1  O=P(O)(O)C(O)(Cn1ccnc1)P(=O)(O)O      51.5 ng/mL

###

# experimental.protocol: Phase 1 Stage 1 clinical pharmacokinetics of SC ZA co-administered with rHuPH20
# Format: in vivo, human
# settings: human, serum, sc, serum; ZA 0.5 mg SC infusion + 24000 Units rHuPH20; 4 h post infusion; individual subjects; read-out: Zoledronic Acid Concentration
readout.name: concentration at 4 h

> print(dat)
                                compound  value.observed
1  O=P(O)(O)C(O)(Cn1ccnc1)P(=O)(O)O [ZA]      5.27 ng/mL

###

# experimental.protocol: Phase 1 Stage 1 clinical pharmacokinetics of SC ZA co-administered with rHuPH20
# Format: in vivo, human
# settings: human, serum, sc, ZA 0.5 mg SC + 24000 U rHuPH20; median, n=3
readout.name: Cmax

> print(dat)
                       smiles.input  readout.name  value.observed
1  O=P(O)(O)C(O)(Cn1ccnc1)P(=O)(O)O          Cmax      15.3 ng/mL

###

# experimental.protocol: Pharmacokinetics of ZA in pig serum after IV or SC infusion with or without rHuPH20 (LC-MS-MS, non-compartmental analysis)
# Type: in vivo
# settings: female, Yorkshire, pig, serum, subcutaneous, […], Time 0.05 h; pig ID 70; Study Group 2; SC; ZA […]; 10 mL, 1.6 min; rHuPH20 0 U/mL; read-out: Zoledronic Acid Serum Concentration
readout.name: concentration at 0.05 h (ng/mL)

> print(dat)
                       smiles.input  output.unit  value.observed
1  O=P(O)(O)C(O)(Cn1ccnc1)P(=O)(O)O        ng/mL             174
